- System: PC3
- experiment: In vitro sphere-forming assay (cancer stem cells), Prostosphere media
- testContext: Homo sapiens, PC-3, read-out: % Viability of spheres (PC3)
parameterMeasured: viability at 0.025 µM (%)
Respond numerically; units are % and should not be typed.

Recorded results for 4 compounds are shown here.
O=C1C=C(Oc2ccc3c(c2)OCO3)C(=O)c2c(OCCN3CCOCC3)cccc21 ... 57
O=C1C(NC2CCCCC2)=CC(=O)c2c(OCCN3CCOCC3)cccc21 ... 77
O=C(O)CCCOc1cccc2c1C(=O)C=C(Nc1ccc3c(c1)OCO3)C2=O ... 67
O=C1C(Nc2ccc3c(c2)OCO3)=CC(=O)c2c(OCC(=O)N3CCOCC3)cccc21 ... 65

# lookup: PC3 viability at 0.025 µM, key = O=C1C=C(N2CCOCC2)C(=O)c2c(OCCN3CCOCC3)cccc21
68

# lookup: PC3 viability at 0.025 µM, key = O=C1C(Oc2ccc(F)cc2)=CC(=O)c2c(OCCN3CCOCC3)cccc21
57

# lookup: PC3 viability at 0.025 µM, key = O=C1C(Oc2ccc(F)cc2)=CC(=O)c2c(OCCCN3CCOCC3)cccc21
68

# lookup: PC3 viability at 0.025 µM, key = COc1ccc(NC2=CC(=O)c3c(OCCCCN4CCOCC4)cccc3C2=O)cc1OC
72

# lookup: PC3 viability at 0.025 µM, key = COc1ccc(NC2=CC(=O)c3c(OCCN4CCOCC4)cccc3C2=O)cc1OC
65

# lookup: PC3 viability at 0.025 µM, key = O=C1C(c2ccc(F)cc2)=CC(=O)c2c(OCCN3CCOCC3)cccc21
71

----------
- Test system: MDAMB231
- experiment: In vitro sphere-forming assay (cancer stem cells), Mammosphere media
- testContext: drug 25 uM; Mammosphere media; 2000 cells/well; n = 6 ± S.D
parameterMeasured: 3D sphere count of MDAMB231

Recorded results for 5 molecules are shown here.
COc1ccc(NC2=CC(=O)c3c(OCCN4CCOCC4)cccc3C2=O)cc1OC ... 8(±2)
O=C(O)CCCOc1cccc2c1C(=O)C=C(Nc1ccc3c(c1)OCO3)C2=O ... 20(±2)
O=C1C(Oc2ccc(F)cc2)=CC(=O)c2c(OCCCN3CCOCC3)cccc21 ... 32(±3)
O=C1C(Oc2ccc(F)cc2F)=CC(=O)c2c(OCCN3CCOCC3)cccc21 ... 10(±2)
O=C1C(Oc2ccc3c(c2)OCO3)=CC(=O)c2c(OCCN3CCOCC3)cccc21 ... 18(±3)

Indicate its recorded 3D sphere count of MDAMB231; the molecule in question is COc1ccc(NC2=CC(=O)c3c(OCCN4CCOCC4)cccc3C2=O)cc1
39(±3)

Indicate its recorded 3D sphere count of MDAMB231; the molecule in question is COc1ccc(OC2=CC(=O)c3c(OCCCN4CCOCC4)cccc3C2=O)cc1
27(±3)

Indicate its recorded 3D sphere count of MDAMB231; the molecule in question is O=C1C(Nc2ccc3c(c2)OCO3)=CC(=O)c2c(OCC(=O)N3CCOCC3)cccc21
11(±2)

----------
- Tested on: PC3
- experiment: In vitro sphere-forming assay (cancer stem cells), Prostosphere media
- testContext: Homo sapiens, PC-3, read-out: % Viability of spheres (PC3)
parameterMeasured: viability at 0.025 µM (%)
Respond numerically; units are % and should not be typed.

Recorded results for 4 compounds are shown here.
O=C1C(Oc2ccc3c(c2)OCO3)=CC(=O)c2c(OCCCCN3CCOCC3)cccc21 ... 57
O=C1C(Oc2ccc(F)cc2F)=CC(=O)c2c(OCCN3CCOCC3)cccc21 ... 56
O=C1C(c2ccc3c(c2)OCO3)=CC(=O)c2c(OCCN3CCOCC3)cccc21 ... 80
O=C1C=C(OCCCCN2CCOCC2)C(=O)c2ccccc21 ... 64

Consider now this further compound.
# lookup: PC3 viability at 0.025 µM, key = O=C1C(c2ccc3c(c2)OCO3)=CC(=O)c2c(OCCCC(=O)N3CCOCC3)cccc21
65

----------
- Test system: MDAMB231
- experiment: In vitro sphere-forming assay (cancer stem cells), Mammosphere media
- testContext: drug 25 uM; Mammosphere media; 2000 cells/well; n = 6 ± S.D
parameterMeasured: 3D sphere count of MDAMB231

Recorded results for 4 molecules are shown here.
O=C1C(NC2CCCCC2)=CC(=O)c2c(OCCN3CCOCC3)cccc21 ... 24(±3)
O=C1C=C(OCCCCCCN2CCOCC2)C(=O)c2ccccc21 ... 27(±2)
O=C1C(c2ccc3c(c2)OCO3)=CC(=O)c2c(OCCCCN3CCOCC3)cccc21 ... 23(±3)
O=C1C(c2ccc3c(c2)OCO3)=CC(=O)c2c(OCCN3CCOCC3)cccc21 ... 24(±4)

Indicate its recorded 3D sphere count of MDAMB231; the molecule in question is O=C1C(Oc2ccc3c(c2)OCO3)=CC(=O)c2c(OCCCCN3CCOCC3)cccc21
16(±3)

----------
Listing of recorded viability at 0.025 µM by entry.
- Tested on: PC3
- experiment: In vitro sphere-forming assay (cancer stem cells), Prostosphere media
- testContext: Homo sapiens, PC-3, read-out: % Viability of spheres (PC3)
Respond numerically; units are % and should not be typed.

Recorded results for 3 molecules are shown here.
CCN(CC)CCNC(=O)COc1cccc2c1C(=O)C=C(Nc1ccc(OC)cc1)C2=O [Formula 72] ... 63
O=C1C(Oc2ccc(F)c(F)c2)=CC(=O)c2c(OCCN3CCOCC3)cccc21 [Formula 76] ... 72
O=C1C(Oc2ccc3c(c2)OCO3)=CC(=O)c2c(OCCN3CCOCC3)cccc21 [Formula 46] ... 67

Indicate its recorded viability at 0.025 µM; the molecule in question is O=C1C(c2ccc3c(c2)OCO3)=CC(=O)c2c(OCCCCN3CCOCC3)cccc21 [Formula 2]
77

Indicate its recorded viability at 0.025 µM; the molecule in question is COc1ccc(NC2=CC(=O)c3c(OCCN4CCOCC4)cccc3C2=O)cc1 [Formula 37]
89

Indicate its recorded viability at 0.025 µM; the molecule in question is COc1ccc(OC2=CC(=O)c3c(OCCN4CCOCC4)cccc3C2=O)cc1 [Formula 43]
57

Indicate its recorded viability at 0.025 µM; the molecule in question is COc1ccc(OC2=CC(=O)c3c(OCCCN4CCOCC4)cccc3C2=O)cc1 [Formula 77]
68

Indicate its recorded viability at 0.025 µM; the molecule in question is O=C1C=C(OCCCCCCN2CCOCC2)C(=O)c2ccccc21 [Formula 68]
55

Indicate its recorded viability at 0.025 µM; the molecule in question is O=C1C=C(Oc2ccc(F)cc2)C(=O)c2c(OCCN3CCOCC3)cccc21 [Formula 80]
56

----------
- Test system: MDAMB231
- experiment: In vitro sphere-forming assay (cancer stem cells), Mammosphere media
- testContext: Homo sapiens, MDA-MB-231, read-out: % Viability of spheres (MDAMB231)
viability at 2.5 µM under 40% gets TRUE, anything at or over 40% gets FALSE.

O=C1C(c2ccc3c(c2)OCO3)=CC(=O)c2c(OCCN3CCOCC3)cccc21 ... FALSE
O=C1C(Oc2ccc(F)cc2)=CC(=O)c2c(OCCN3CCOCC3)cccc21 ... TRUE
O=C1C=C(Oc2ccc3c(c2)OCO3)C(=O)c2c(OCCN3CCOCC3)cccc21 ... TRUE
O=C1C(Oc2ccc3c(c2)OCO3)=CC(=O)c2c(OCCCCN3CCOCC3)cccc21 ... TRUE
O=C1C(c2ccc3c(c2)OCO3)=CC(=O)c2c(OCCCCN3CCOCC3)cccc21 ... FALSE

Does this compound meet the criterion viability at 2.5 µM < 40%? COc1ccc(NC2=CC(=O)c3c(OCCCCN4CCOCC4)cccc3C2=O)cc1OC
TRUE

Does this compound meet the criterion viability at 2.5 µM < 40%? O=C1C(c2ccc(F)cc2)=CC(=O)c2c(OCCN3CCOCC3)cccc21
FALSE

----------
- Tested on: PC3
- experiment: In vitro sphere-forming assay (cancer stem cells), Prostosphere media
- testContext: drug 0.025 uM; Prostosphere media; 2000 cells/well; n = 6 ± S.D
parameterMeasured: 3D sphere count of PC3

Recorded results for 3 molecules are shown here.
COc1ccc(OC2=CC(=O)c3c(OCCCN4CCOCC4)cccc3C2=O)cc1 ... 55(±3)
O=C1C(c2ccc3c(c2)OCO3)=CC(=O)c2c(OCCCC(=O)N3CCOCC3)cccc21 ... 53(±3)
O=C(O)CCCOc1cccc2c1C(=O)C=C(Nc1ccc3c(c1)OCO3)C2=O ... 55(±2)

# lookup: PC3 3D sphere count of PC3, key = COc1ccc(NC2=CC(=O)c3c(OCCN4CCOCC4)cccc3C2=O)cc1
89(±3)

# lookup: PC3 3D sphere count of PC3, key = O=C1C(NC2CCCCC2)=CC(=O)c2c(OCCN3CCOCC3)cccc21
63(±4)

# lookup: PC3 3D sphere count of PC3, key = O=C1C=C(Oc2ccc(F)cc2)C(=O)c2c(OCCN3CCOCC3)cccc21
45(±3)

# lookup: PC3 3D sphere count of PC3, key = O=C1C(Oc2ccc(F)cc2)=CC(=O)c2c(OCCCN3CCOCC3)cccc21
55(±3)

# lookup: PC3 3D sphere count of PC3, key = O=C1C(c2ccc3c(c2)OCO3)=CC(=O)c2c(OCCCCN3CCOCC3)cccc21
63(±4)

# lookup: PC3 3D sphere count of PC3, key = COc1ccc(NC2=CC(=O)c3c(OCCN4CCOCC4)cccc3C2=O)cc1OC
57(±3)
